assay_target: ATPase (mitochondrial ATP synthase)
assay_text: Inhibition of the enzymatic activity of ATPase in vitro
test_parameters: read-out: Inhibition constant (Ki)
assay_readout: pKi
pKi (log units): -log10 of the concentration in mol/L.

See these solved cases before continuing.
molecule: C#CCCC1(CCNC(=O)c2cc3cccnc3c3ncccc23)N=N1.F[P-](F)(F)(F)(F)F.F[P-](F)(F)(F)(F)F.[Ru+2].c1ccc2c(c1)[nH]c1c(-c3ncc[nH]3)nccc12.c1cnc2c(c1)ccc1cccnc12 [Ru5a]
quantitative_readout: 5.09
//
molecule: F[P-](F)(F)(F)(F)F.F[P-](F)(F)(F)(F)F.[Ru+2].c1ccc2c(c1)[nH]c1c(-c3ncc[nH]3)nccc12.c1cnc2c(c1)ccc1cccnc12.c1cnc2c(c1)ccc1cccnc12 [Ru5]
quantitative_readout: 5.21

Next item in the queue.
Measured pKi, Cc1ccc2c(c1)C(=O)C1(O)CCN(c3ccccc3)C1=N2 (single isomer, unassigned; (-)) [(-)-blebbistatin, reference compound] : 5.48
